TEST PROTOCOL: ATG_M_32_XSP2: Attagene TRANS-FACTORIAL Multi-Species (XSP2) HepG2 Assay for M19 Transcription Factor (Internal Marker) (AID 2283826)
Results filed as inconclusive are left out. Activity calls are given as the source filed them. The calls were made as follows: active = hit-call score of the fitted dose curve at least 0.9, where 1 is the maximum; inconclusive = response in the unintended direction; inactive = score below 0.9.
Answer with one of the outcomes given here: 1 (yes) (active), 0 (no) (inactive)

Task: Hi, do you know how CC(C)(c1cc(Cl)c(O)c(Cl)c1)c1cc(Cl)c(O)c(Cl)c1 came out in this test?
Output: 0 (no)

Task: Hi, do you know how CCCCCCCCCCCCc1ccc(O)cc1 came out in this test?
Output: 0 (no)

Task: Hi, do you know how O=c1cc(-c2ccccc2)oc2cc(O)cc(O)c12 came out in this test?
Output: 0 (no)

Task: Hi, do you know how CCN(Cc1c(F)cccc1Cl)c1c([N+](=O)[O-])cc(C(F)(F)F)cc1[N+](=O)[O-] came out in this test?
Output: 0 (no)

Task: Hi, do you know how Cc1c2ccccc2c(C)c2c1ccc1ccccc12 came out in this test?
Output: 0 (no)

Task: Hi, do you know how CCC(C)(C)C1CCC(O)CC1 (configuration not stated) came out in this test?
Output: 0 (no)

Task: Hi, do you know how O=C(O)Cc1cc(I)c(Oc2cc(I)c(O)c(I)c2)c(I)c1 came out in this test?
Output: 0 (no)

Task: Hi, do you know how CC(C)(c1cc(Br)c(O)c(Br)c1)c1cc(Br)c(O)c(Br)c1 came out in this test?
Output: 0 (no)

Task: Hi, do you know how CCCCC(CC)CN1C(=O)C2C3C=CC(C3)C2C1=O (configuration not stated) came out in this test?
Output: 1 (yes)

Task: Hi, do you know how CCN(CC)CCOc1ccc(C(=C(Cl)c2ccccc2)c2ccccc2)cc1 came out in this test?
Output: 0 (no)

Task: Hi, do you know how CC(C)(c1ccc(O)cc1)c1ccc(O)cc1 came out in this test?
Output: 0 (no)

Task: Hi, do you know how O=C(c1ccc(O)cc1)c1ccc(O)cc1O came out in this test?
Output: 0 (no)

----------
SUBJECT OF TEST: Signal transducer and activator of transcription 3 (Homo sapiens)
TEST PROTOCOL: ATG_STAT3_CIS: Attagene CIS-FACTORIAL HepG2 Assay for human Signal Transducer and Activator of Transcription 3 (STAT3) (AID 2282963)
CONDITION INFO: HepG2, Attagene cis-factorial STAT3 reporter transcription; actives raise or lower the signal
Active and inactive are the calls of the source. The calls were made as follows: active = hit-call score of the fitted dose curve at least 0.9, where 1 is the maximum; inactive = score below 0.9.
Answer with one of the outcomes given here: active, inactive

Task: Hi, do you know how Cc1ccc(OP(=O)(Oc2ccc(C)cc2)Oc2ccc(C)cc2)cc1 (tested in a mixture with another compound) came out in this test?
Output: inactive

Task: Hi, do you know how CCOC(=O)C1OC1(C)c1ccccc1 (configuration not stated) came out in this test?
Output: inactive

Task: Hi, do you know how CC(=O)c1cc2c(cc1C)C(C)(C)C(C)CC2(C)C (configuration not stated) came out in this test?
Output: inactive

Task: Hi, do you know how O=c1[nH]c(Cl)c(Cl)cc1Cl came out in this test?
Output: inactive

Task: Hi, do you know how N#Cc1cc(I)c(O)c(I)c1 came out in this test?
Output: inactive

Task: Hi, do you know how c1cc(OCC2CO2)ccc1Cc1ccc(OCC2CO2)cc1 (configuration not stated) came out in this test?
Output: active

Task: Hi, do you know how CC1(C)[C@H](C(=O)O[C@H](C#N)c2cccc(Oc3ccccc3)c2)[C@@H]1C=C(Br)Br came out in this test?
Output: inactive

Task: Hi, do you know how C=CCN(CC=C)C(=O)C(Cl)Cl came out in this test?
Output: inactive

Task: Hi, do you know how C[N+](C)=CCl came out in this test?
Output: inactive

Task: Hi, do you know how COc1cc(OC)nc(Oc2cccc(Oc3nc(OC)cc(OC)n3)c2C(=O)O)n1 came out in this test?
Output: inactive

Task: Hi, do you know how Nc1ccc(-c2ccc(N)c(N)c2)cc1N came out in this test?
Output: inactive

Task: Hi, do you know how O=C=Nc1ccccc1 came out in this test?
Output: inactive

These data points were gathered from PubChem BioAssay (EPA / NIEHS).
